# Test system: SNB-75
# experiment: NCI tumour cell line growth inhibition, 48 h
Activity calls are given as the source filed them. Rule as the data show it: active = GI50 up to about 1.1 µM and inactive = higher.
Possible outcomes: active, inactive

{"molecule": "Clc1ccccc1C1=NN(c2ccccc2)C2c3cc(Br)ccc3OCC12 (stereo not drawn)", "system name": "SNB-75", "class assignment": "inactive"}
{"molecule": "O=C(CSSCC(=O)OCCS(=O)(=O)Nc1ccc(Br)cc1)OCCS(=O)(=O)Nc1ccc(Br)cc1", "system name": "SNB-75", "class assignment": "inactive"}
{"molecule": "C/C(=N\\NS(=O)(=O)c1ccccc1)c1ccc(Cl)c(Cl)c1", "system name": "SNB-75", "class assignment": "inactive"}
{"molecule": "CC(C)CCCCCCCCCCCCC(=O)NCC(=O)NC1C(C)OC(Nc2[nH]cnc3ncnc2-3)C(O)C1O (stereo not drawn)", "system name": "SNB-75", "class assignment": "active"}
{"molecule": "c1cc2cc3c4c5c(cc6ccc7cc8cc9c%10c8c8c7c6c5c8c5c%10c(c1C9N1CCOCCOCCOCCOCCOCC1)c2c45)C3 (stereo not drawn)", "system name": "SNB-75", "class assignment": "inactive"}
{"molecule": "CCN(CC)CCn1c2cc3c(cc2c(=O)c2cccnc21)OCO3", "system name": "SNB-75", "class assignment": "inactive"}
{"molecule": "[O-][n+]1c(-c2ccccc2)c2nc3ccccc3nc2c2ccccc21", "system name": "SNB-75", "class assignment": "inactive"}
{"molecule": "O=C(CSC1=NC(=O)C2(NN1)c1ccccc1-c1ccccc12)NC(=S)Nc1ccccc1", "system name": "SNB-75", "class assignment": "inactive"}
{"molecule": "C/C(=N\\NC(=S)NCCCCNC(=S)N/N=C(\\C)c1ccccn1)c1ccccc1", "system name": "SNB-75", "class assignment": "active"}
{"molecule": "COc1c(Sc2ccccc2)cc(Sc2ccccc2)c2cccnc12", "system name": "SNB-75", "class assignment": "inactive"}
{"molecule": "N#C/C(=C\\c1cn(Cc2ccccc2)c2ccccc12)c1nn(-c2ccccc2)c(N)c1C#N", "system name": "SNB-75", "class assignment": "inactive"}
{"molecule": "CN[C@@H](C)[C@@H](N)c1ccccc1", "system name": "SNB-75", "class assignment": "inactive"}
{"molecule": "CSC12c3cc(C)n(-c4ccccc4)c3CC(C)(C)CN1C(=O)C2Oc1ccccc1 (stereo not drawn)", "system name": "SNB-75", "class assignment": "inactive"}
